Tested on: RT4 (Bladder Carcinoma)
Experiment: combination Emax (second highest fraction inhibited in the dose matrix, 72 h); higher = more inhibition; extreme values may be limits of the assay
Given measured combination Emax, output condition met if it is greater than or equal to 0.5 and condition not met if not.

These recorded examples may help you get a feel for the data.
COc1nnc2ccc(N3CCC(c4ccc(OCCN5CCN(C)C(=O)[C@H]5C)cc4)CC3)nn12 [AZD5153] + C=CCn1c(=O)c2cnc(Nc3ccc(N4CCN(C)CC4)cc3)nc2n1-c1cccc(C(C)(C)O)n1 [AZD1775] (first compound max 1 µM, partner max 1 µM): condition met
NC1(C(=O)N[C@@H](CCO)c2ccc(Cl)cc2)CCN(c2ncnc3[nH]ccc23)CC1 [Capivasertib] + C[C@@H]1COCCN1C2=NC(=NC(=C2)C3(CC3)[S@](=N)(=O)C)C4=C5C=CNC5=NC=C4 [AZD6738] (first compound max 10 µM, 7x7, partner max 10 µM): condition met
Cn1cnc2c(F)c(Nc3ccc(Br)cc3Cl)c(C(=O)NOCCO)cc21 [Selumetinib] + C=CCn1c(=O)c2cnc(Nc3ccc(N4CCN(C)CC4)cc3)nc2n1-c1cccc(C(C)(C)O)n1 [AZD1775] (first compound max 10 µM, partner max 1 µM): condition not met
CCc1c2c(nc3ccc(O)cc13)-c1cc3c(c(=O)n1C2)COC(=O)[C@]3(O)CC [SN-38] + CN(C)CCCOc1ccc(-c2ccc3ncc4c(c3c2)n(C2CCOCC2)c(=O)n4C)cn1 [AZD0156] (first compound max 0.3 µM, 7x7, partner max 1 µM): condition met

Proceed to the following item.
Could you please find out whether Cc1c2c(nn1C)CSCc1cc(n(C)n1)CSc1cc(c3ccccc3c1)OCCCc1c(C(=O)O)n(C)c3c-2c(Cl)ccc13 [AZD5991] + C[C@@H](Nc1cc(F)cc(F)c1)c1cc(C(=O)N(C)C)cc2c(=O)cc(N3CCOCC3)oc12 [AZD8186] (first compound max 1 µM, 7x7, partner max 3 µM) has combination Emax that meets 0.5 or exceeds it?
condition not met

====

Listed here are compounds together with their documented Bliss excess.
Tested on: SNU-175 (Colorectal Carcinoma);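 further: after 72 h of two-drug dosing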
Experiment: Bliss excess, mean over the matrix (fraction); higher = more synergy
The answer should be a number; do not append a unit.

C[C@@H](c1ccc2nccn2c1)n1nnc2ncc(-c3cnn(C)c3)nc21 [Savolitinib] + CC1(C)CCC(CN2CCN(c3ccc(C(=O)NS(=O)(=O)c4ccc(NCC5CCOCC5)c([N+](=O)[O-])c4)c(Oc4cnc5[nH]ccc5c4)c3)CC2)=C(c2ccc(Cl)cc2)C1 [Venetoclax] (first compound max 1 µM, 7x7, partner max 1 µM): -0.0764

Now turn to the next compound.
Give the measured Bliss excess of COc1cccc(OCCCN)c1-c1cc(Nc2cnc(C#N)cn2)n[nH]1 [Prexasertib] + CN(C)CCCOc1ccc(-c2ccc3ncc4c(c3c2)n(C2CCOCC2)c(=O)n4C)cn1 [AZD0156] (first compound max 1 µM, 7x7, partner max 1 µM) .
0.0462

====

Test system: NCI-H196 (Small Cell Lung Carcinoma)
Assay: combination Emax (second highest fraction inhibited in the dose matrix, 72 h); higher = more inhibition; extreme values may be limits of the assay
Each entry below carries its recorded combination Emax.
Please respond with just the number, no unit label.

Here's what some known entries look like.
CN(CCO)CC[C@H](CSc1ccccc1)Nc1ccc(S(=O)(=O)NC(=O)c2ccc(N3CCC([C@@H](O)c4ccccc4-c4ccc(Cl)cc4)CC3)cc2)cc1S(=O)(=O)C(F)(F)F [AZD4320] + Cc1cc2ncnn2cc1Nc1ncc2c(n1)n(C1CCOCC1)c(=O)n2C [AZD7648] (first compound max 1 µM, 7x7, partner max 10 µM): 0.128
CC1(C)CCC(CN2CCN(c3ccc(C(=O)NS(=O)(=O)c4ccc(NCC5CCOCC5)c([N+](=O)[O-])c4)c(Oc4cnc5[nH]ccc5c4)c3)CC2)=C(c2ccc(Cl)cc2)C1 [Venetoclax] + COc1cc(Nc2ncc3c(n2)-c2ccc(Cl)cc2C(c2c(F)cccc2OC)=NC3)ccc1C(=O)O [Alisertib] (first compound max 1 µM, 7x7, partner max 10 µM): 0.113
COc1cccc(OCCCN)c1-c1cc(Nc2cnc(C#N)cn2)n[nH]1 [Prexasertib] + C[C@@H]1COCCN1C2=NC(=NC(=C2)C3(CC3)[S@](=N)(=O)C)C4=C5C=CNC5=NC=C4 [AZD6738] (first compound max 1 µM, 7x7, partner max 10 µM): 0.566

Now look at this entry.
Fill in: combination Emax of Cn1cnc2c(F)c(Nc3ccc(Br)cc3Cl)c(C(=O)NOCCO)cc21 [Selumetinib] + CC(C)n1c(=O)n(C)c2cnc3cc(F)c(-c4ccc(OCCCN5CCCCC5)nc4)cc3c21 [AZD1390] (first compound max 10 µM, 7x7, partner max 0.3 µM) is ___
0.0904
